Listed compounds paired with reported IC50
# TEST SYSTEM: human FXa (Homo sapiens)
# Sequence (P00742 235-488 limits assumed): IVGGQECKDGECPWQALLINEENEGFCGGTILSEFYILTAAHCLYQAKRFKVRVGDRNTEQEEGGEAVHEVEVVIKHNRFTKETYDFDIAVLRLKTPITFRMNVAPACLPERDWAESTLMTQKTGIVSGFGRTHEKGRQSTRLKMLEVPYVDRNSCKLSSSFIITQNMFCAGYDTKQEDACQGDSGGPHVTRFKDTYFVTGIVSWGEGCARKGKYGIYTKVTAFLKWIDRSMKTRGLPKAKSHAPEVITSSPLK
# Sequence (P00742 41-179 partner limits assumed): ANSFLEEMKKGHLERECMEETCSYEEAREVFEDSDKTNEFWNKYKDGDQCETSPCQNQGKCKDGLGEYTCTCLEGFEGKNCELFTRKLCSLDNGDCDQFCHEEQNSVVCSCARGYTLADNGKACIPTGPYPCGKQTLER
# PROTOCOL DESCRIPTION: Inhibitory action of human activated blood coagulation factor X (FXa)
# REPORTED CONDITIONS: chromogenic substrate S-2765, 37° C., absorbance at 405 nm, read-out: IC50 (concentration inhibiting FXa activity by 50%)
Counter-ions that a name gives are not always drawn.

COMPOUND	IC50, nM
N=C1CCCCN1C1CCN(C(=O)[C@H](O)CS(=O)(=O)c2ccc3cc(Cl)ccc3c2)CC1 [Example 43, trifluoroacetate]	4.8
O=C([C@H](O)CS(=O)(=O)c1ccc2cc(Cl)ccc2c1)N1CCN(N2CCCNC2=O)CC1	4.2
O=C(CCS(=O)(=O)c1ccc2cc(Cl)ccc2c1)N1CCN(N2CCCNC2=O)CC1	9.9
O=C([C@H](O)CS(=O)(=O)c1ccc2cc(Cl)ccc2c1)N1CCN(N2CCCCC2=O)CC1	6.6

Data origin: patent US8697865B2
